Tested on: Jurkat
Assay details: Induction of apoptosis in Jurkat cells assessed as cell viability at 5 uM after 48 hrs by flow cytometry Annexin-V/propidium iodide assay
Format: functional
Condition context: Homo sapiens, read-out: Activity
viability at 5 µM less than 10% is True; viability at 5 µM greater than or equal to 10% is False.

{"Molecule": "Cc1n[nH]c2c1C(c1ccccc1[N+](=O)[O-])C1=C(COC1=O)N2 (stereo not drawn)", "Label class": "True"}
{"Molecule": "Cc1n[nH]c2c1C(c1ccc(Cl)c(Cl)c1)C1=C(COC1=O)N2 (stereo not drawn)", "Label class": "False"}
{"Molecule": "Cc1n[nH]c2c1C(c1ccsc1)C1=C(COC1=O)N2 (stereo not drawn)", "Label class": "True"}
{"Molecule": "CSc1ccc(C2C3=C(COC3=O)Nc3[nH]nc(C)c32)cc1 (stereo not drawn)", "Label class": "False"}

Kindly review the next molecule as well.
Ask | Regarding COc1cc(C2C3=C(COC3=O)Nc3[nH]nc(C)c32)cc(OC)c1OC (stereo not drawn) , kindly confirm whether its viability at 5 µM is beneath 10%.
Reply | False

* * *

Tested on: Jurkat
Assay details: Induction of apoptosis in Jurkat cells assessed as cell viability at 5 uM after 48 hrs by flow cytometry Annexin-V/propidium iodide assay
Assay type: functional
Condition context: Homo sapiens, read-out: Activity
Field: viability at 5 µM. Provide a value for each of the molecules that follow.
One number for each entry, in %.

These recorded examples may help you get a feel for the data.
{"Molecule": "Cc1n[nH]c2c1C(c1c(C)nc3sccn13)C1=C(COC1=O)N2 (stereo not given)", "Attribute measured": "viability at 5 µM", "Reported value": 7}
{"Molecule": "COc1ccc(C2C3=C(COC3=O)Nc3[nH]nc(C)c32)cc1 (stereo not given)", "Attribute measured": "viability at 5 µM", "Reported value": 11}

// for each molecule below, give its viability at 5 µM
1. COc1cc(C2C3=C(COC3=O)Nc3cc4c(cc32)OCO4)cc(OC)c1OC (stereo not given)
2. COc1cc(C2C3=C(COC3=O)Nc3[nH]nc(-c4ccc(Br)cc4)c32)cc(OC)c1OC (stereo not given)
3. COc1cc(C2C3=C(COC3=O)Nc3[nH]nc(C)c32)cc(Br)c1OC(C)=O (stereo not given)
4. COc1ccc(C2C3=C(COC3=O)Nc3[nH]nc(C)c32)cc1OC (stereo not given)
5. Cc1n[nH]c2c1C(c1cc(Br)c(O)c(Br)c1)C1=C(COC1=O)N2 (stereo not given)
6. COc1cc2c(c(OC)c1)C(c1cc(OC)c(OC)c(OC)c1)C1=C(COC1=O)N2 (stereo not given)
7. Cc1n[nH]c2c1C(c1cccc(F)c1)C1=C(COC1=O)N2 (stereo not given)
8. COc1cc(C2C3=C(COC3=O)Nc3c2c(C)nn3C(C)C)cc(OC)c1OC (stereo not given)

Reply |
55
5
58
5
53
55
28
4

Items follow; give viability at 5 µM for each.
1. COc1cc(C2C3=C(COC3=O)Nc3c2c(C)nn3-c2ccc(C)cc2)cc(OC)c1OC (stereo not given)
2. COc1cc(C2C3=C(COC3=O)Nc3[nH]nc(C)c32)cc([N+](=O)[O-])c1O (stereo not given)
3. Cc1nc2ccccc2nc1C1C2=C(COC2=O)Nc2[nH]nc(C)c21 (stereo not given)
4. Cc1n[nH]c2c1C(c1ccccc1Br)C1=C(COC1=O)N2 (stereo not given)
5. COc1cc(C2C3=C(COC3=O)Nc3c2c(C)nn3C)cc(OC)c1OC (stereo not given)

Reply |
1. 23
2. 5
3. 11
4. 8
5. 5

Dear reader, for each entry below, please note its viability at 5 µM.
1. Cc1n[nH]c2c1C(c1cccs1)C1=C(COC1=O)N2 (stereo not given)
2. Cc1n[nH]c2c1C(c1ccc(N(C)C)c(Br)c1)C1=C(COC1=O)N2 (stereo not given)
3. Cc1n[nH]c2c1C(c1cccnc1)C1=C(COC1=O)N2 (stereo not given)
4. COc1cc([C@@H]2c3cc4c(cc3[C@@H](O[C@@H]3O[C@@H]5CO[C@@H](C)O[C@H]5[C@H](O)[C@H]3O)[C@H]3COC(=O)[C@H]23)OCO4)cc(OC)c1O [ETOPOSIDE]
5. Cc1n[nH]c2c1C(C)C1=C(COC1=O)N2 (stereo not given)

Reply |
[18, 41, 11, 4, 5]
